Where do the numbers come from? From ChEMBL document CHEMBL1135401.

- experimental.target: Dihydrofolate reductase (Mycobacterium avium, UniProt O30463)
- Sequence (O30463 whole entry): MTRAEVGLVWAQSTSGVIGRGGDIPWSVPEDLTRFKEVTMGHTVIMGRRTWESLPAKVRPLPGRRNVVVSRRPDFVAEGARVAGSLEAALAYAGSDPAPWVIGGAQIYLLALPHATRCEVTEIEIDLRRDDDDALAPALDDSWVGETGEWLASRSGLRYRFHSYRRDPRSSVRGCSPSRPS
- assay.overview: Antimycobacterial activity against Mycobacterium avium complex dihydrofolate reductase (MAC DHFR)
For each of the compounds below, state its IC50.
Entry rule: numbers only, all in pM.

Identify IC50 associated with the compound Cc1ccc(Cl)c(NCc2cnc3nc(N)nc(N)c3c2C)c1
950

# return recorded IC50 for input CCCOc1ccc(OCCC)c(NCc2cnc3nc(N)nc(N)c3c2C)c1
1000

Tell me IC50 reported for Cc1c(CNc2ccc(OC(F)F)cc2)cnc2nc(N)nc(N)c12
1100

Supply recorded IC50 for COc1ccc(NCc2cnc3nc(N)nc(N)c3c2C)cc1OC here.
700

Fill in reported IC50 for this entry: Cc1cc(Br)ccc1NCc1cnc2nc(N)nc(N)c2c1C
850
